System: Hepatitis B virus
Protocol Description: Antiviral activity against HBV infected in human HepG2.2.15 cells
Type: functional, organism-based
Assay Setup: HepG2 2.2.15
pEC50: −log10 of the molar value.

- Sample Smiles: "COC(=O)C1=C(C)NC(c2ncc(F)cc2F)=N[C@H]1c1ccc(F)cc1Cl"
  pEC50: 7.28

----------
Test system: Hepatitis B virus
Protocol Description: Antiviral activity against HBV infected in human HepAD38 cells assessed as reduction in viral DNA levels incubated for 6 days by PCR analysis
Type: functional, organism-based
Assay Setup: HePAD38, 144 h
pEC50: −log10 of the molar value.
Recorded pEC50, one value per entry.
Observation Type: pEC50

- Compound: "Cn1nc(Nc2ccc(F)c(Cl)c2)c2cc(S(=O)(=O)N3CCC(O)CC3)ccc21"
  Relation Operator: "="
  Result: 5.86
- Compound: "O=S(=O)(c1ccc2c(c1)c(Nc1ccc(F)c(C3CC3)c1)nn2C1CC1)N1CCC(O)CC1"
  Relation Operator: "="
  Result: 6.17
- Compound: "O=C(O)C1CCN(S(=O)(=O)c2ccc3c(c2)c(Nc2ccc(F)cc2)nn3C2CC2)C1 (stereo not given)"
  Relation Operator: "<"
  Result: 5.00
- Compound: "O=S(=O)(c1ccc2c(c1)c(Nc1ccc(F)cc1)nn2C1CC1)N1CCC2(CC1)OCCO2"
  Relation Operator: "="
  Result: 6.60
- Compound: "O=S(=O)(c1ccc2c(c1)c(Nc1ccc(F)cc1)nn2C1CC1)N1CCC(CO)CC1"
  Relation Operator: "="
  Result: 5.96

----------
Protocol Description: Half life in mouse plasma by HPLC analysis
Format: ADME, cell-free
Recorded half-life, one value per entry.

- Sample Smiles: "Cc1cc(Nc2nn(C3CC3)c3cnc(S(=O)(=O)N4CCC(OC(=O)CN(C)C)CC4)cc23)ccc1F.O=C(O)C(F)(F)F"
  half-life, h: 0.787
- Sample Smiles: "Cc1cc(Nc2nn(C3CC3)c3cnc(S(=O)(=O)N4CCC(OC(=O)CN)CC4)cc23)ccc1F.O=C(O)C(F)(F)F"
  half-life, h: 1.29
- Sample Smiles: "Cc1cc(Nc2nn(C3CC3)c3cnc(S(=O)(=O)N4CCC(OC(=O)[C@@H](N)C(C)C)CC4)cc23)ccc1F.O=C(O)C(F)(F)F"
  half-life, h: 18
- Sample Smiles: "Cc1cc(Nc2nn(C3CC3)c3cnc(S(=O)(=O)N4CCC(OC(=O)[C@H](C)N)CC4)cc23)ccc1F.O=C(O)C(F)(F)F"
  half-life, h: 0.52

----------
Tested on: Hepatitis B virus
Protocol Description: Antiviral activity against HBV infected in human HepAD38 cells assessed as reduction in viral DNA levels incubated for 6 days by PCR analysis
Format: functional, organism-based
Assay Setup: HePAD38, 144 h
Recorded EC50, one value per entry.
Observation Type: EC50 (nM)

- Sample Smiles: "O=S(=O)(c1ccc2c(c1)c(Nc1ccc(F)c(F)c1)nn2C1CC1)N1CCOCC1"
  Subject Of Test: "Hepatitis B virus"
  Observation Type: "EC50"
  Result: 220
- Sample Smiles: "O=S(=O)(c1ccc2[nH]nc(Nc3ccc(F)c(Cl)c3)c2c1)N1CCC(O)CC1"
  Subject Of Test: "Hepatitis B virus"
  Observation Type: "EC50"
  Result: 1280
- Sample Smiles: "O=S(=O)(c1cc2c(Nc3cc(F)c(F)c(F)c3)nn(C3CC3)c2cc1F)N1CCC(O)CC1"
  Subject Of Test: "Hepatitis B virus"
  Observation Type: "EC50"
  Result: 130
- Sample Smiles: "O=S(=O)(c1ccc2c(c1)c(Nc1cc(F)c(F)c(F)c1)nn2C1CC1)N1CCC(O)CC1"
  Subject Of Test: "Hepatitis B virus"
  Observation Type: "EC50"
  Result: 270
- Sample Smiles: "O=S(=O)(c1cc(F)c2c(c1)c(Nc1cc(F)c(F)c(F)c1)nn2C1CC1)N1CCC(O)CC1"
  Subject Of Test: "Hepatitis B virus"
  Observation Type: "EC50"
  Result: 2000
